# test-target: factor D (Homo sapiens, UniProt P00746)
# Construct: made in house; host or cells: E. coli
# Sequence (P00746 26-253): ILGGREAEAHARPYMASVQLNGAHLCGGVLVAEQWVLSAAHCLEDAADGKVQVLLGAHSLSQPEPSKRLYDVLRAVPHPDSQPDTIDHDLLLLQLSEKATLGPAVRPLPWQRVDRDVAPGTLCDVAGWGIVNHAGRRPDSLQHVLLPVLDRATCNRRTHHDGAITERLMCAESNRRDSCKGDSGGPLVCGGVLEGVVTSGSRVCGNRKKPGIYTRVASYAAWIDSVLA
# test-details: factor D inhibition assay of Biological Example 2
# Format: biochemical
The entries below come with measured log10(IC50) values attached.
A value of 2 here means IC50 of 100 in nM, since values are log10.

See these solved cases before continuing.
1) NCc1cccc(-c2cccc(COc3cc(CC4CC4)ccc3CC(=O)O)c2)c1; 0.95
2) Cc1cc(COc2ccccc2CC(=O)O)cc(-c2cccc([C@H](N)CO)c2)c1; 0.85
3) NCc1cccc(-c2cccc(COc3ccccc3CC(=O)O)c2)n1; 1.45
4) C[C@@H](N)c1cccc(-c2cc(CCC3CCCN3C)cc(COc3ccccc3CC(=O)O)c2)c1F (stereo partly shown); 2.04
5) NCc1cc(F)cc(-c2cc(Nc3ccn[nH]3)cc(C(=O)Nc3ccccc3CC(=O)O)c2)c1; 1.34
6) CC(C)Cn1cc(-c2cc(COc3ccccc3CC(=O)O)cc(-c3cccc(CN)c3)c2)cn1; 0.60

Please report the recorded log10(IC50) for C[C@@H](N)c1cccc(-c2cc(COc3ccccc3CC(=O)O)cc(COC(F)F)c2)c1F .
0.60

Please report the recorded log10(IC50) for C[C@H](N)c1cccc(-c2cc(CCc3ccncc3)cc(COc3ccccc3CC(=O)O)c2)c1F .
1.89

* * *

The entries below come with measured pIC50 values attached.
# test-target: factor D (Homo sapiens, UniProt P00746)
# Construct: made in house; host or cells: E. coli
# test-details: factor D inhibition assay of Biological Example 2
# Type: biochemical
// pIC50: -log10(molar conc.)

1) NCc1ccc(F)c(-c2ccnc(COc3ccccc3CC(=O)O)c2)c1; 5.24
2) COc1ccc(COc2ccccc2CC(=O)O)cc1-c1cccc([C@H](N)CO)c1; 7.21
3) CCC[C@@H](N)c1cccc(-c2cccc(COc3c(F)cccc3CC(=O)O)c2)c1; 6.58

Lab note: need pIC50 for COc1ccc(C(=O)Nc2ccccc2CC(=O)O)cc1-c1cccc(CN)c1 on factor D (Homo sapiens, UniProt P00746), anyone have it?
6.45

Lab note: need pIC50 for C[C@@H](N)c1cccc(-c2cc(COc3ccccc3CC(=O)O)cc(NCc3ccccn3)c2)c1F on factor D (Homo sapiens, UniProt P00746), anyone have it?
8.05

Lab note: need pIC50 for NCc1cccc(-c2cccc(COc3ccccc3CC(=O)O)c2)c1Cl on factor D (Homo sapiens, UniProt P00746), anyone have it?
7.11

Lab note: need pIC50 for N[C@H](CO)c1cccc(-c2cc(COc3ccccc3CC(=O)O)c(F)c(NCC3CCCO3)c2)c1 (some centres unmarked) on factor D (Homo sapiens, UniProt P00746), anyone have it?
8.40

Lab note: need pIC50 for NCc1cccc(-c2cccc(C(=O)Nc3ccccc3CC(=O)O)c2)c1F on factor D (Homo sapiens, UniProt P00746), anyone have it?
7.39

Lab note: need pIC50 for NCc1cc(F)cc(-c2cc(C(=O)O)cc(C(=O)Nc3ccccc3CC(=O)O)c2)c1 on factor D (Homo sapiens, UniProt P00746), anyone have it?
5.65

Lab note: need pIC50 for NCc1cc(F)cc(-c2cccc(C(=O)Nc3cccc(Cl)c3CC(=O)O)c2)c1 on factor D (Homo sapiens, UniProt P00746), anyone have it?
5.51

Lab note: need pIC50 for C[C@@H](N)c1cccc(-c2cc(COc3ccccc3CC(=O)O)cc(OC[C@H]3CCCO3)c2)n1 on factor D (Homo sapiens, UniProt P00746), anyone have it?
7.47
